# System: HeLa Kyoto
# Test: thermal stability score vs G1/S (z-score of summed log2 fold changes over temperatures); higher = more thermally stable than in G1/S
# Test conditions: cell cycle stage: mitosis
Each entry falls in a class defined on thermal stability score; the bands are range A: < -2; range B: ≥ -2 and < 0.5; range C: ≥ 0.5

- Sequence string: "MDFLMSGLAACGACVFTNPLEVVKTRMQLQGELQAPGTYQRHYRNVFHAFITIGKVDGLAALQKGLAPALLYQFLMNGIRLGTYGLAEAGGYLHTAEGTHSPARSAAAGAMAGVMGAYLGSPIYMVKTHLQAQAASEIAVGHQYKHQGMFQALTEIGQKHGLVGLWRGALGGLPRVIVGSSTQLCTFSSTKDLLSQWEIFPPQSWKLALVAAMMSGIAVVLAMAPFDVACTRLYNQPTDAQGKGLMYRGILDALLQTARTEGIFGMYKGIGASYFRLGPHTILSLFFWDQLRSLYYTDTK [SLC25A35]"
  Test target: "HeLa Kyoto"
  Label: "range B"
- Sequence string: "MRLPRRAALGLLPLLLLLPPAPEAAKKPTPCHRCRGLVDKFNQGMVDTAKKNFGGGNTAWEEKTLSKYESSEIRLLEILEGLCESSDFECNQMLEAQEEHLEAWWLQLKSEYPDLFEWFCVKTLKVCCSPGTYGPDCLACQGGSQRPCSGNGHCSGDGSRQGDGSCRCHMGYQGPLCTDCMDGYFSSLRNETHSICTACDESCKTCSGLTNRDCGECEVGWVLDEGACVDVDECAAEPPPCSAAQFCKNANGSYTCEECDSSCVGCTGEGPGNCKECISGYAREHGQCADVDECSLAEKTCVRKNENCYNTPGSYVCVCPDGFEETEDACVPPAEAEATEGESPTQLPSREDL [CRELD2]"
  Test target: "HeLa Kyoto"
  Label: "range B"
- Sequence string: "MAASGEPQRQWQEEVAAVVVVGSCMTDLVSLTSRLPKTGETIHGHKFFIGFGGKGANQCVQAARLGAMTSMVCKVGKDSFGNDYIENLKQNDISTEFTYQTKDAATGTASIIVNNEGQNIIVIVAGANLLLNTEDLRAAANVISRAKVMVCQLEITPATSLEALTMARRSGVKTLFNPAPAIADLDPQFYTLSDVFCCNESEAEILTGLTVGSAADAGEAALVLLKRGCQVVIITLGAEGCVVLSQTEPEPKHIPTEKVKAVDTTGAGDSFVGALAFYLAYYPNLSLEDMLNRSNFIAAVSVQAAGTQSSYPYKKDLPLTLF [RBKS]"
  Test target: "HeLa Kyoto"
  Label: "range A"
- Sequence string: "MHRDSCPLDCKVYVGNLGNNGNKTELERAFGYYGPLRSVWVARNPPGFAFVEFEDPRDAADAVRELDGRTLCGCRVRVELSNGEKRSRNRGPPPSWGRRPRDDYRRRSPPPRRRSPRRRSFSRSRSRSLSRDRRRERSLSRERNHKPSRSFSRSRSRSRSNERK [SRSF3]"
  Test target: "HeLa Kyoto"
  Label: "range A"
- Sequence string: "MYTLLSGLYKYMFQKDEYCILILGLDNAGKTTFLEQSKTRFNKNYKGMSLSKITTTVGLNIGTVDVGKARLMFWDLGGQEELQSLWDKYYAECHGVIYVIDSTDEERLAESKQAFEKVVTSEALCGVPVLVLANKQDVETCLSIPDIKTAFSDCTSKIGRRDCLTQACSALTGKGVREGIEWMVKCVVRNVHRPPRQRDIT [ARFRP1]"
  Test target: "HeLa Kyoto"
  Label: "range B"

Exercise: read the entry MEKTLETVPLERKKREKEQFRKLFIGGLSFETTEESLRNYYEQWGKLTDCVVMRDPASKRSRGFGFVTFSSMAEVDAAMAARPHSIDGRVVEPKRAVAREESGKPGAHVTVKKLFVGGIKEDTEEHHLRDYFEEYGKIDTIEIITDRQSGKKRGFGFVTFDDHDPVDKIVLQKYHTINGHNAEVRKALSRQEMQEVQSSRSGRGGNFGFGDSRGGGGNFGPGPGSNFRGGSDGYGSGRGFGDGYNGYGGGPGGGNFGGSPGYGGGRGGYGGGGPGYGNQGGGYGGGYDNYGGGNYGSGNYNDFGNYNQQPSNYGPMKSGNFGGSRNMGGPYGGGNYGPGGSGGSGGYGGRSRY [HNRNPA2B1] and state which class it falls under. range C

Exercise: read the entry MAASGKLSTCRLPPLPTIREIIKLLRLQAAKQLSQNFLLDLRLTDKIVRKAGNLTNAYVYEVGPGPGGITRSILNADVAELLVVEKDTRFIPGLQMLSDAAPGKLRIVHGDVLTFKVEKAFSESLKRPWEDDPPNVHIIGNLPFSVSTPLIIKWLENISCRDGPFVYGRTQMTLTFQKEVAERLAANTGSKQRSRLSVMAQYLCNVRHIFTIPGQAFVPKPEVDVGVVHFTPLIQPKIEQPFKLVEKVVQNVFQFRRKYCHRGLRMLFPEAQRLESTGRLLELADIDPTLRPRQLSISHFKSLCDVYRKMCDEDPQLFAYNFREELKRRKSKNEEKEEDDAENYRL [TFB1M] and state which class it falls under. range B

Exercise: read the entry MKDVPGFLQQSQNSGPGQPAVWHRLEELYTKKLWHQLTLQVLDFVQDPCFAQGDGLIKLYENFISEFEHRVNPLSLVEIILHVVRQMTDPNVALTFLEKTREKVKSSDEAVILCKTAIGALKLNIGDLQVTKETIEDVEEMLNNLPGVTSVHSRFYDLSSKYYQTIGNHASYYKDALRFLGCVDIKDLPVSEQQERAFTLGLAGLLGEGVFNFGELLMHPVLESLRNTDRQWLIDTLYAFNSGNVERFQTLKTAWGQQPDLAANEAQLLRKIQLLCLMEMTFTRPANHRQLTFEEIAKSAKITVNEVELLVMKALSVGLVKGSIDEVDKRVHMTWVQPRVLDLQQIKGMKDRLEFWCTDVKSMEMLVEHQAHDILT [PSMD13] and state which class it falls under. range C

Exercise: read the entry MATLVELPDSVLLEIFSYLPVRDRIRISRVCHRWKRLVDDRWLWRHVDLTLYTMRPKVMWHLLRRYMASRLHSLRMGGYLFSGSQAPQLSPALLRALGQKCPNLKRLCLHVADLSMVPITSLPSTLRTLELHSCEISMAWLHKQQDPTVLPLLECIVLDRVPAFRDEHLQGLTRFRALRSLVLGGTYRVTETGLDAGLQELSYLQRLEVLGCTLSADSTLLAISRHLRDVRKIRLTVRGLSAPGLAVLEGMPALESLCLQGPLVTPEMPSPTEILSSCLTMPKLRVLELQGLGWEGQEAEKILCKGLPHCMVIVRACPKESMDWWM [FBXL12] and state which class it falls under. range B

---

# System: HeLa Kyoto
# Test: melting temperature (median over replicates), in situ; higher = more thermally stable
# Test conditions: cell cycle stage: G1/S
Readout name: melting temperature

// returns reported melting temperature for input MASTGSQASDIDEIFGFFNDGEPPTKKPRKLLPSLKTKKPRELVLVIGTGISAAVAPQVPALKSWKGLIQALLDAAIDFDLLEDEESKKFQKCLHEDKNLVHVAHDLIQKLSPRTSNVRSTFFKDCLYEVFDDLESKMEDSGKQLLQSVLHLMENGALVLTTNFDNLLELYAADQGKQLESLDLTDEKKVLEWAQEKRKLSVLHIHGVYTNPSGIVLHPAGYQNVLRNTEVMREIQKLYENKSFLFLGCGWTVDDTTFQALFLEAVKHKSDLEHFMLVRRGDVDEFKKLRENMLDKGIKVISYGDDYADLPEYFKRLTCEISTRGTSAGMVREGQLNGSSAAHSEIRGCST [FAM118B] 49.3 °C

---

Answer each item with its documented melting temperature.
# Test system: HeLa Kyoto
# Test: melting temperature (median over replicates), in situ; higher = more thermally stable
# Test conditions: cell cycle stage: mitosis
Give bare numbers, in °C.

- Sequence string: "MSEGDSVGESVHGKPSVVYRFFTRLGQIYQSWLDKSTPYTAVRWVVTLGLSFVYMIRVYLLQGWYIVTYALGIYHLNLFIAFLSPKVDPSLMEDSDDGPSLPTKQNEEFRPFIRRLPEFKFWHAATKGILVAMVCTFFDAFNVPVFWPILVMYFIMLFCITMKRQIKHMIKYRYIPFTHGKRRYRGKEDAGKAFAS [RER1]"
  Test target: "HeLa Kyoto"
  Readout name: "melting temperature"
  Quantitative readout: 55.5
- Sequence string: "MATELEYESVLCVKPDVSVYRIPPRASNRGYRASDWKLDQPDWTGRLRITSKGKTAYIKLEDKVSGELFAQAPVEQYPGIAVETVTDSSRYFVIRIQDGTGRSAFIGIGFTDRGDAFDFNVSLQDHFKWVKQESEISKESQEMDARPKLDLGFKEGQTIKLCIGNITNKKGGASKPRTARGGGLSLLPPPPGGKVTIPPPSSSVAISNHVTPPPIPKSNHGGSDADILLDLDSPAPVTTPAPTPVSVSNDLWGDFSTASSSVPNQAPQPSNWVQF [NECAP1]"
  Test target: "HeLa Kyoto"
  Readout name: "melting temperature"
  Quantitative readout: 52.4

# evaluate next
// returns reported melting temperature for input MSFRKVNIIILVLAVALFLLVLHHNFLSLSSLLRNEVTDSGIVGPQPIDFVPNALRHAVDGRQEEIPVVIAASEDRLGGAIAAINSIQHNTRSNVIFYIVTLNNTADHLRSWLNSDSLKSIRYKIVNFDPKLLEGKVKEDPDQGESMKPLTFARFYLPILVPSAKKAIYMDDDVIVQGDILALYNTALKPGHAAAFSEDCDSASTKVVIRGAGNQYNYIGYLDYKKERIRKLSMKASTCSFNPGVFVANLTEWKRQNITNQLEKWMKLNVEEGLYSRTLAGSITTPPLLIVFYQQHSTIDPMWNVRHLGSSAGKRYSPQFVKAAKLLHWNGHLKPWGRTASYTDVWEKWYIPDPTGKFNLIRRYTEISNIK [GLT8D1] 53

Reference for the values: the supplement of paper PMC5998384
